Values from ChEMBL document CHEMBL1140770

System: HepG2
PROTOCOL NOTES: Cytostatic activity against human HepG2 cells by SRB assay
Format: functional
TGI values for the compounds below.

1) C[C@H]1CC[C@@]2(OC1)O[C@H]1C=C3[C@@H]4CC[C@H]5Cc6nc7c(nc6C[C@]5(C)[C@H]4CC(=O)[C@]3(C)[C@H]1[C@@H]2C)C[C@@H]1CC[C@H]2C3=C[C@@H]4O[C@]5(CC[C@H](C)CO5)[C@@H](C)[C@@H]4[C@@]3(C)[C@H](O)C[C@@H]2[C@@]1(C)C7 : > 10 µM
2) C[C@H]1CC[C@@]2(OC1)O[C@H]1C=C3[C@@H]4CC[C@H]5Cc6nc7c(nc6C[C@]5(C)[C@H]4C[C@@H](O)[C@]3(C)[C@H]1[C@@H]2C)C[C@@H]1CC[C@H]2C3=C[C@@H]4O[C@]5(CC[C@H](C)CO5)[C@@H](C)[C@@H]4[C@@]3(C)[C@H](O)C[C@@H]2[C@@]1(C)C7 : 5 µM
3) C[C@H]1CC[C@@]2(OC1)O[C@H]1C=C3[C@@H]4CC[C@H]5Cc6nc7c(nc6C[C@]5(C)[C@H]4CC(=O)[C@]3(C)[C@H]1[C@@H]2C)C[C@@H]1CC[C@H]2C3=C[C@@H]4O[C@]5(CC[C@H](C)CO5)[C@@H](C)[C@@H]4[C@@]3(C)C(=O)C[C@@H]2[C@@]1(C)C7 : > 10 µM
4) C[C@H](CO)CC[C@H]1O[C@H]2C=C3[C@@H]4CC[C@H]5Cc6nc7c(nc6C[C@]5(C)[C@H]4CC4(OCCO4)[C@]3(C)[C@H]2[C@@H]1C)C[C@@H]1CC[C@H]2C3=C[C@@H]4O[C@]5(CC[C@H](C)CO5)[C@@H](C)[C@@H]4[C@@]3(C)[C@H](O)C[C@@H]2[C@@]1(C)C7 : > 10 µM
5) C[C@H](CO)CC[C@H]1O[C@H]2C=C3[C@@H]4CC[C@H]5Cc6nc7c(nc6C[C@]5(C)[C@H]4C[C@@H](O)[C@]3(C)[C@H]2[C@@H]1C)C[C@@H]1CC[C@H]2C3=C[C@@H]4O[C@H](CC[C@H](C)CO)[C@@H](C)[C@@H]4[C@@]3(C)C3(C[C@@H]2[C@@]1(C)C7)OCCO3 : > 10 µM

Lab note: next compound to report on.
// TGI lookup, key: C=C1C[C@H]2[C@@H](CC[C@H]3Cc4nc5c(nc4C[C@@]32C)C[C@@H]2CC[C@H]3C4=C[C@@H]6O[C@]7(CC[C@H](C)CO7)[C@@H](C)[C@@H]6[C@@]4(C)C(=O)C[C@@H]3[C@@]2(C)C5)C2=C[C@@H]3O[C@]4(CC[C@H](C)CO4)[C@@H](C)[C@@H]3[C@@]12C
> 10 µM

* * *

Tested on: MCF7
PROTOCOL NOTES: Cytostatic activity against human MCF7 cells by SRB assay
Format: functional
GI50 values for the compounds below.

1) C[C@H]1CC[C@@]2(OC1)O[C@H]1C=C3[C@@H]4CC[C@H]5Cc6nc7c(nc6C[C@]5(C)[C@H]4C[C@@H](O)[C@]3(C)[C@H]1[C@@H]2C)C[C@@H]1CC[C@H]2C3=C[C@@H]4O[C@]5(CC[C@H](C)CO5)[C@@H](C)[C@@H]4[C@@]3(C)C3(C[C@@H]2[C@@]1(C)C7)OCCO3 : 0.1 µM

// GI50 lookup, key: C[C@H]1CC[C@@]2(OC1)O[C@H]1C=C3[C@@H]4CC[C@H]5Cc6nc7c(nc6C[C@]5(C)[C@H]4CC(=O)[C@]3(C)[C@H]1[C@@H]2C)C[C@@H]1CC[C@H]2C3=C[C@@H]4O[C@]5(CC[C@H](C)CO5)[C@@H](C)[C@@H]4[C@@]3(C)[C@H](O)C[C@@H]2[C@@]1(C)C7
> 10 µM

Same thing, different compound: C[C@H]1CC[C@@]2(OC1)O[C@H]1C=C3[C@@H]4CC[C@H]5Cc6nc7c(nc6C[C@]5(C)[C@H]4C[C@@H](O)[C@]3(C)[C@H]1[C@@H]2C)C[C@@H]1CC[C@H]2C3=C[C@@H]4O[C@]5(CC[C@H](C)CO5)[C@@H](C)[C@@H]4[C@@]3(C)[C@H](O)C[C@@H]2[C@@]1(C)C7
5.2 µM

Same thing, different compound: C[C@H](CO)CC[C@H]1O[C@H]2C=C3[C@@H]4CC[C@H]5Cc6nc7c(nc6C[C@]5(C)[C@H]4CC4(OCCO4)[C@]3(C)[C@H]2[C@@H]1C)C[C@@H]1CC[C@H]2C3=C[C@@H]4O[C@]5(CC[C@H](C)CO5)[C@@H](C)[C@@H]4[C@@]3(C)[C@H](O)C[C@@H]2[C@@]1(C)C7
2.5 µM

Same thing, different compound: C=C1C[C@H]2[C@@H](CC[C@H]3Cc4nc5c(nc4C[C@@]32C)C[C@@H]2CC[C@H]3C4=C[C@@H]6O[C@]7(CC[C@H](C)CO7)[C@@H](C)[C@@H]6[C@@]4(C)C(=O)C[C@@H]3[C@@]2(C)C5)C2=C[C@@H]3O[C@]4(CC[C@H](C)CO4)[C@@H](C)[C@@H]3[C@@]12C
> 10 µM
